Below is a list of entries, each paired with its recorded cell count value.
test: compounds altering HSF1 focus formation in cells – imaging, Selleck Cancer Library (AID 1347162); settings: human cells, HSF1 nuclear foci imaging, at 10 µM; measured here: cell number

COMPOUND	cell count
CNC(=O)c1ccc(C)c(-n2c(C)cc(OCc3ccc(F)cc3F)c(Br)c2=O)c1	7630
Cc1[nH]c2ccccc2c1CCNCc1ccc(/C=C/C(=O)NO)cc1	7220
COc1cc(OC2CCN(C)CC2)ccc1Nc1ncc2c(n1)n(C1CCCC1)c(=O)n2C	7430
CCCCCCCCc1ccc(CCC(N)(CO)CO)cc1	3980
CN(NC(=O)CC(=O)NN(C)C(=S)c1ccccc1)C(=S)c1ccccc1	6990
CNC(=O)c1ccc(N2C(=S)N(c3ccc(C#N)c(C(F)(F)F)c3)C(=O)C2(C)C)cc1F	6500
CN1CCN(c2cccc(Nc3nc4c(-c5ccc(S(C)(=O)=O)cc5)cccn4n3)c2)CC1	6270
Cc1cc(Nc2cc(N3CCN(C)CC3)nc(Sc3ccc(NC(=O)C4CC4)cc3)n2)n[nH]1	6720
Cn1c(=O)c(F)c(Nc2ccc(I)cc2F)c2c(=O)n(C[C@@H](O)CO)cnc21	7260
COc1ccc(-c2cc3nccn3c(Nc3ncccc3C(N)=O)n2)cc1OC	6940
CN[C@@H](C)C(=O)N[C@H]1CN(C(=O)CC(C)C)CC[C@H]2CC[C@@H](C(=O)NC(c3ccccc3)c3ccccc3)N2C1=O	7260
CC1(C)OC2=C(C(=O)c3ccccc3C2=O)[C@H](NCc2ccccc2)[C@@H]1O	7240
OCCn1cc(-c2ccc3c(c2)CC/C3=N\O)c(-c2ccncc2)n1	6750
CS(=O)(=O)c1ccc(C(=O)Nc2ccc(Cl)c(-c3ccccn3)c2)c(Cl)c1	7240
Cc1cc(/C=c2/sc3nc4ccccc4n3c2=O)c(C)n1-c1ccccc1	7030
Nc1nccc(Oc2ccc(NC(=O)c3c[nH]cc(-c4ccc(F)cc4)c3=O)cc2F)c1Cl	7240
CC(C)c1ccc(Cn2ccc3c4c(N)nc(NC5CC5)nc4ccc32)cc1	3190
O=C(O)c1ccc2c(c1)nc(Nc1cccc(Cl)c1)c1ccncc12	7390
CC[C@H](Nc1ncnc2nc[nH]c12)c1nc2cccc(F)c2c(=O)n1-c1ccccc1	7370
COc1cc(Oc2ccnc3cc(OC)c(OC)cc23)ccc1NC(=O)NC(C)c1nccs1 (centres undefined)	6450
COc1ccc(-c2ccc3c(N4CCOCC4)nc(N4C[C@@H](C)O[C@@H](C)C4)nc3n2)cc1CO	6570
CC[C@@H]1C(=O)N(C)c2cnc(Nc3ccc(C(=O)NC4CCC(N5CCN(CC6CC6)CC5)CC4)cc3OC)nc2N1C(C)C (some centres undefined)	7310
CC(C)(C)c1cc(NC(=O)Nc2ccc(-c3cn4c(n3)sc3cc(OCCN5CCOCC5)ccc34)cc2)no1	7630
CNC(=O)c1cc(Oc2ccc(NC(=O)Nc3cc(C(C)(C)C)nn3-c3ccc4ncccc4c3)c(F)c2)ccn1	6970
CN(C)C[C@@H]1CCn2cc(c3ccccc32)C2=C(C(=O)NC2=O)c2cn(c3ccccc23)CCO1	6860
Cc1ccc(C(=O)Nc2ccc(CN3CCN(C)CC3)c(C(F)(F)F)c2)cc1C#Cc1cnc2cccnn12	7680
COC(=O)Nc1ccc(-c2nc(N3CCOCC3)c3cnn(C4CCN(C(=O)OC)CC4)c3n2)cc1	6960
COc1ncc(-c2ccc3nccc(-c4ccnnc4)c3c2)cc1NS(=O)(=O)c1ccc(F)cc1F	6380
COc1cc2nc(N3CCCN(C)CC3)nc(NC3CCN(Cc4ccccc4)CC3)c2cc1OC	6820
Cn1cnc(=N)c2[nH]cnc21	7250
CN(C)CCCN=c1c2ccccc2n(C)c2[nH]c(=O)n(C)c(=O)c12	6580
Nc1nc(OCc2cc(Br)cs2)c2[nH]cnc2n1	6820
COc1ccc2c3n(c(=NC(=O)c4cccnc4)nc2c1OC)CCN3	7610
CC(C)C[C@H](NC(=O)CNC(=O)c1cc(Cl)ccc1Cl)B(O)O	6790
O=C(/C=C/C#Cc1cccc(NS(=O)(=O)c2ccccc2)c1)NO	6610
CN(C)Cc1ccc(-c2nc3cccc4c3n2CCNC4=O)cc1	7430
Nc1[nH]nc2nnc(-c3c(-c4ccccc4)nn4ccccc34)cc12	7090
N#Cc1ccc(NC(=O)Nc2ccccc2Br)c2n[nH]nc12	7440
COC(=O)c1ccc2c(C(=Nc3ccc(N(C)C(=O)CN4CCN(C)CC4)cc3)c3ccccc3)c(O)[nH]c2c1	7520

Reference for the values: PubChem BioAssay
